# target-system: Recombinant human cathepsin K (Homo sapiens)
# Construct: made in house
# Sequence (P43235 115-329): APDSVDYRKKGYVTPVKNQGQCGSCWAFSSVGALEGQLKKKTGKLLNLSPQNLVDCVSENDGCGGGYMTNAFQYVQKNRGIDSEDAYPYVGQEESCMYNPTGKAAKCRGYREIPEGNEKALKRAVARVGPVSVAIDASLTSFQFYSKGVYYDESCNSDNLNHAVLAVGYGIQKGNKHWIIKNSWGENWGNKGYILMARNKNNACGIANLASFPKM
# assay-notes: Kinetic measurements, hydrolysis of the fluorogenic substrate Z-FR↓AMC (general modifier mechanism)
# Format: biochemical
# settings: at 0.1×Km and 10×Km substrate, modifier 10×KA; calculated with Equation 1 from α and β of Table 3; unmodified enzyme = 1.00
measured-metric: Z-FRAMC: geometric mean of residual activities (vA)

COC(=O)CNC1CC(=O)N(c2ccc(OC)cc2)C1=O (stereo not shown)	0.60
Nc1cc(C(=O)O)ccc1NCC1CCCO1 (stereo not shown)	0.37
O=C(O)c1ccccc1C(=O)Nc1cccc([N+](=O)[O-])c1 [Compound 7, 2-[(3-Nitrophenyl)carbamoyl]benzoic acid]	0.48
NCC1CCN(CCc2ccccc2)CC1	0.65
OC(c1cc(-c2ccc(C(F)(F)F)cc2)nc(C(F)(F)F)c1)C1CCCCN1 (stereo not shown)	0.42
O=C(O)C(Cc1ccccc1-c1ccccc1)C(=O)O	0.70
O=C(Nc1ccc(C(=O)O)c(O)c1)c1ccccc1	0.42
